These data points were gathered from BindingDB's records for patent US20250221987.

target: Poly [ADP-ribose] polymerase 2 (Homo sapiens); test: PARP2 Enzymatic Activity Assay
Sequence (Q9UGN5 whole entry): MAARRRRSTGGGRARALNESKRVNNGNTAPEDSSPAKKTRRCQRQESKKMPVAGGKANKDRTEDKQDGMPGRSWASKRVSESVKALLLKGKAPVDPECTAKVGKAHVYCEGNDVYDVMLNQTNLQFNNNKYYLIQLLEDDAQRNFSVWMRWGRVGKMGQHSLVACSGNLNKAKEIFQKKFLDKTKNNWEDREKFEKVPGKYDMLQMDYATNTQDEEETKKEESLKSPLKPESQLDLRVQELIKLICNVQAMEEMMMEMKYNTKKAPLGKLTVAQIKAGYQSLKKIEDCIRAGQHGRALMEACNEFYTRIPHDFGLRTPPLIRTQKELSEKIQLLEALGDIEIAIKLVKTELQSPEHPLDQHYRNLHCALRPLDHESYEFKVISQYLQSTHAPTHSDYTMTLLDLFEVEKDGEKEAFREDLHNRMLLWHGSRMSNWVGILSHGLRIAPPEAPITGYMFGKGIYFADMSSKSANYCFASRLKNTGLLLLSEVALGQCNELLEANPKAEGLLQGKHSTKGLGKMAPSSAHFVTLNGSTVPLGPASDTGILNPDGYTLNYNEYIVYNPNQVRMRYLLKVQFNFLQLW

| Compound | IC50, µM |
| --- | --- |
| CCc1cc2ncc(CN3CCN(c4ccc(C(=O)NC)nc4)[C@@H]4CC[C@H]43)cc2[nH]c1=O [US20250221987, Example 2-3] | 0.072 |
